test system: Wolbachia pipientis; assay: Anti-Wolbachia Cell-Based Screen; assay type: functional; parameters: scale not given: in the data most compounds retested in dose-response had high values; settings: 5 µM
Hit rate of the full screen: of about 48,000 compounds, about 13,000 (27%) showed an effect of 50% or more. The list shows a part of the results.
value-type: Percent Effect (%)
Give the value, in units of %, as a plain number.

Any idea what its Percent Effect is? The compound is O=C(NCCOc1ccc(F)cc1)C1CCCN(C(=O)C2CC2)C1 (stereo not given)
-0.9975

Any idea what its Percent Effect is? The compound is NCC1Cc2cc(-c3cncc(C(=O)N4CCCCC4)n3)cc(F)c2O1 (stereo not given)
-1.954

Any idea what its Percent Effect is? The compound is Cc1ccc(F)c(OC2(C(=O)O)CCN(C(=O)c3ccccc3)CC2)c1
-18.21

Any idea what its Percent Effect is? The compound is CN1CC(=O)N(C2CCNCC2)Cc2c(NC3CCC3)ncnc21
106.1

Any idea what its Percent Effect is? The compound is CCS(=O)(=O)N1CCC2(CCCC(=O)N2C)CC1
1.174

Any idea what its Percent Effect is? The compound is O=c1[nH]c2c(c(=O)n1C1CCCCC1)CCC2NCCc1ccccc1 (stereo not given)
24.49

Any idea what its Percent Effect is? The compound is CC(C)c1nc(CN(C)C(=O)C2CC(=O)N(Cc3ccncc3)C2)cs1 (stereo not given)
6.051

Any idea what its Percent Effect is? The compound is CCCn1cnnc1CN(C)C(=O)C1CCCN(C2CCN(C)CC2)C1 (stereo not given)
120.4

Any idea what its Percent Effect is? The compound is CC(C)CCc1nc(CNCC2CN(C)CCO2)cs1 (stereo not given)
94.45

Any idea what its Percent Effect is? The compound is Cc1noc(C)c1C(C)NC(=O)N1CCC(NC(=O)c2ccsc2)CC1 (stereo not given)
-3.825

Any idea what its Percent Effect is? The compound is Cn1c(=O)[nH]c(=O)n2c(CC(=O)Nc3c(Cl)cccc3Cl)cnc12
100.8

Any idea what its Percent Effect is? The compound is CN1CCOC(CNCc2nc(-c3ccccc3)cs2)C1 (stereo not given)
5.622

Any idea what its Percent Effect is? The compound is Cc1ccc(-c2cn3c(n2)CO[C@@H](CNCc2nccs2)C3)cc1
-9.469

Any idea what its Percent Effect is? The compound is CCn1nc(C)c2nc(C(C)C)nc(NCCOC)c21
-9.329

Any idea what its Percent Effect is? The compound is COc1ccc(S(=O)(=O)NCC(c2cccn2C)N(C)C)cc1F (stereo not given)
1.104

Any idea what its Percent Effect is? The compound is COC1CN(C(=O)CC2CCCC2)CCC(=O)N(C)c2ccccc21 (stereo not given)
101.3

Any idea what its Percent Effect is? The compound is CCOC(=O)[C@H]1[C@@H](O)C(=O)N(C)C12CCN(S(=O)(=O)CC)CC2
107.6

Any idea what its Percent Effect is? The compound is CC(C)(C)OC(=O)N1CCCc2ccc(NCc3ccon3)cc21
-9.372

Any idea what its Percent Effect is? The compound is CCN1CCC(CC(=O)N2CCN(c3ccccc3OC)CC2C)CC1 (stereo not given)
10.24

Any idea what its Percent Effect is? The compound is Cc1noc([C@@H]2C[C@H](NC(=O)C3CCCCC3)CN2C)n1
-5.582

Any idea what its Percent Effect is? The compound is O=C(O)CC[C@@H]1CN(c2ncnc3[nH]ccc23)CC[C@@H]1N1CCOCC1
-3.371

Any idea what its Percent Effect is? The compound is COC1CCN(C(=O)C2CC(=O)N(c3ccccc3Br)C2)CC1 (stereo not given)
-10.75

Any idea what its Percent Effect is? The compound is Cn1c(N)nnc1SCC1OCCc2ccccc21 (stereo not given)
-8.673

Any idea what its Percent Effect is? The compound is Cc1cnc(NC(=O)NCCOc2ncccc2Cl)s1
12.43

Any idea what its Percent Effect is? The compound is Cn1ccc(C(=O)N2CCN(CCc3ccccc3)CC2)cc1=O
-2.355

Any idea what its Percent Effect is? The compound is O=C(C1CCCC1)N1CCC(C(O)c2ccc(F)cc2)CC1 (stereo not given)
-1.378

Any idea what its Percent Effect is? The compound is CC1(C)CNC(=O)c2nc(CCN3CCCCC3CO)[nH]c2C1 (stereo not given)
-22.93

Any idea what its Percent Effect is? The compound is CN1C(=O)CC(c2ccccc2)C12CCN(C(=O)c1ccc[nH]1)CC2 (stereo not given)
-3.808

Any idea what its Percent Effect is? The compound is Cc1nc2cc(=O)[nH]n2c(C)c1CC(=O)Nc1cn[nH]c1
-20.81

Any idea what its Percent Effect is? The compound is CC(C)CN1C(=O)CO[C@@H]2CN(C(=O)NC(C)C)C[C@H]21
-9.204

Any idea what its Percent Effect is? The compound is CCOc1ccc(C(=O)CCC(=O)NCc2cncn2CC)cc1C
-8.028

Any idea what its Percent Effect is? The compound is CN(C)c1ncccc1C(=O)N1CCCN(c2cccnn2)CC1
-6.134

Any idea what its Percent Effect is? The compound is N#Cc1ccccc1C(=O)N1C[C@H](CO)C[C@H](CN2CCCC2)C1
4.936

Any idea what its Percent Effect is? The compound is CN1CC(=O)c2sc(NCCc3ccccc3)nc2C1
91.14

Any idea what its Percent Effect is? The compound is CCOC(=O)[C@H]1[C@@H](O)C(=O)N(C)C12CCN(C(=O)c1ccccc1)CC2
113.3

---

test system: Wolbachia pipientis; assay: Anti-Wolbachia Cell-Based Screen; type: functional; set-up: scale not given: in the data most compounds retested in dose-response had high values; settings: 5 µM
The campaign covered roughly 48,000 compounds. About 13,000 (27%) showed an effect of 50% or more. The list shows a part of the results.
For each entry below, report its Percent Effect value.
Give the value, in units of %, as a plain number.

Any idea what its Percent Effect is? The compound is Cc1cccc(N2CCN(S(=O)(=O)CCN)CC2)c1
-3.019

Any idea what its Percent Effect is? The compound is CCC(NC(=O)c1cccc2cc[nH]c12)C(=O)N1CCOCC1 (stereo not given)
1.714

Any idea what its Percent Effect is? The compound is CCOCC(=O)NC1(c2cccc(Cl)c2)CC1
-6.24

Any idea what its Percent Effect is? The compound is CNC(=O)CN1CCC(NC(=O)C(C)Oc2ccccc2C#N)CC1 (stereo not given)
0.1216

Any idea what its Percent Effect is? The compound is O=C1COC2(CCN(c3ncccn3)CC2)CN1c1ccsc1
18.21

---

system: Wolbachia pipientis; experiment: Anti-Wolbachia Cell-Based Screen; assay type: functional; parameters: scale not given: in the data most compounds retested in dose-response had high values; conditions: 5 µM
Among all 48,000 compounds or so, about 13,000 (27%) showed an effect of 50% or more. The list shows a part of the results.
For each entry below, report its Percent Effect value.
Give the value, in units of %, as a plain number.

Any idea what its Percent Effect is? The compound is CS(=O)(=O)N[C@H]1CCO[C@]2(CCN(CC3CCOCC3)C2)C1.O=C(O)C(F)(F)F
0.7443

Any idea what its Percent Effect is? The compound is COc1ccnc(CNc2cc(C3CC3)ncn2)c1
-5.331

Any idea what its Percent Effect is? The compound is CC(NC(=O)NC1CCN(CC2CCCC2)CC1)c1nccs1 (stereo unspecified)
-2.566

Any idea what its Percent Effect is? The compound is Cc1ncsc1CCC(=O)NCc1csc(N(C)C)n1
8.732

Any idea what its Percent Effect is? The compound is CCc1ccc(CN2CCc3[nH]nc(C(=O)N4CCNC(=O)C4)c3C2)o1
-23.7

Any idea what its Percent Effect is? The compound is Cc1nc(CNC(=O)NCc2ccc(OCC3CC3)nc2)cs1
-6.746

Any idea what its Percent Effect is? The compound is CC(O)CN(Cc1cccc(C(=O)N(C)C)c1)c1ccccc1 (stereo unspecified)
9.156

Any idea what its Percent Effect is? The compound is COC(=O)Nc1cccc(C(=O)N(C)Cc2cccc(O)c2)c1
89.16

Any idea what its Percent Effect is? The compound is CC(CNC(=O)N1CCN(CC(F)F)CC1)Cc1cccs1 (stereo unspecified)
5.816

Any idea what its Percent Effect is? The compound is Cc1cc(C(=O)N(C)S(=O)(=O)C(C)C)ccc1F
-2.598

Any idea what its Percent Effect is? The compound is Cl.c1ccc(CNc2cc(C3CCCNC3)ccn2)nc1 (stereo unspecified)
70.58

Any idea what its Percent Effect is? The compound is COCc1cccc(NC(C)C(=O)N(C)Cc2cccc(F)c2)c1 (stereo unspecified)
-0.4154

Any idea what its Percent Effect is? The compound is COc1cc2c(nn1)CCN(Cc1nc(Cc3ccccc3)no1)C2
-1.36

Any idea what its Percent Effect is? The compound is CN(C)C(=O)c1cccc(NC(=O)N(CCO)Cc2ccsc2)c1
5.648

Any idea what its Percent Effect is? The compound is Cn1c(CN2CCOCC2)nnc1C1CCCN(C(=O)CCC2CC2)C1 (stereo unspecified)
24.17

Any idea what its Percent Effect is? The compound is CC(C)NC(=O)N1CCCn2cnc(CO)c2C1.O=C(O)C(F)(F)F
89.15

Any idea what its Percent Effect is? The compound is O=C(c1[nH]nc(C2CC2)c1Cl)N1CCN(C2CC2)CC1
-10.68

Any idea what its Percent Effect is? The compound is Cc1cc(C(=O)N(CC(=O)O)CC(C)C)ccc1F
96.02

Any idea what its Percent Effect is? The compound is CCCc1ccc(CN2C[C@H]3C(=O)N(CC4CC4)C[C@@]3(C(=O)O)C2)o1
-18.71

Any idea what its Percent Effect is? The compound is COCCOc1ccc(C(=O)N[C@@H]2CNCCC[C@H]2O)cc1
-1.711

Any idea what its Percent Effect is? The compound is CC(C)OCc1ncn2c1CN(CCO)CCC2.O=C(O)C(F)(F)F
-4.222

Any idea what its Percent Effect is? The compound is Cc1nc(CSCCC(=O)NCc2ccc(N(C)C)cc2)cs1
100.6

Any idea what its Percent Effect is? The compound is CCC(CO)N(Cc1ccccn1)C(=O)c1ccc(=O)[nH]c1 (stereo unspecified)
7.999

Any idea what its Percent Effect is? The compound is CN(Cc1ccsc1)C(=O)c1cccc(F)c1
7.751

Any idea what its Percent Effect is? The compound is Cc1cccc(CNC[C@H]2Cn3ccnc3CO2)n1
-11.54

Any idea what its Percent Effect is? The compound is CN(CC(=O)NCCC#N)C(c1ccccc1)c1ccc(F)cc1 (stereo unspecified)
2.68

Any idea what its Percent Effect is? The compound is CC(C)CCNC(=O)C(c1cccc(F)c1)N(C)C (stereo unspecified)
-2.485

Any idea what its Percent Effect is? The compound is COc1ccc(CNC(=O)NCCc2csc(C)n2)cn1
78.6

Any idea what its Percent Effect is? The compound is CS(=O)(=O)N[C@@H]1CCO[C@]2(CCN(CC3CCOCC3)C2)C1.O=C(O)C(F)(F)F
-3.641

Any idea what its Percent Effect is? The compound is CCN1CCC(CNS(=O)(=O)N2CCc3ccccc3C2)C1 (stereo unspecified)
5.13

Any idea what its Percent Effect is? The compound is Cc1cccc(C(=O)N(CC(=O)O)CC(C)C)c1
94.29

Any idea what its Percent Effect is? The compound is CN(Cc1cccc(F)c1)C(=O)c1ccncc1Cl
-2.45

Any idea what its Percent Effect is? The compound is O=S(=O)(C1CC1)N1CCOC2(CCCN(c3ccccc3)C2)C1 (stereo unspecified)
-6.387

Any idea what its Percent Effect is? The compound is Cc1ccc(C(=O)N(CC(=O)O)CC(C)C)cc1F
102.6

Any idea what its Percent Effect is? The compound is CCN(CC)C(=O)c1cccc(Cn2nc(C)cc2C)c1
-2.548

Any idea what its Percent Effect is? The compound is Cc1nc(C(NC(=O)CN(C)C(C)C)c2ccccc2F)no1 (stereo unspecified)
-8.62

Any idea what its Percent Effect is? The compound is Cc1nc(CCNC(=O)NCc2ccc(N(C)C)nc2)cs1
2.776

Any idea what its Percent Effect is? The compound is COCC(=O)NCCC(=O)N1CCN(S(=O)(=O)c2ccc(Br)cc2)CC1
15.42

Any idea what its Percent Effect is? The compound is Cc1cc(C(=O)N(C)S(C)(=O)=O)ccc1F
-1.159

Any idea what its Percent Effect is? The compound is COC1COC2(CCN(CC3CCOCC3)CC2)C1.O=C(O)C(F)(F)F (stereo unspecified)
105.7

Any idea what its Percent Effect is? The compound is O=C(CCc1cscn1)NS(=O)(=O)c1ccc2ccccc2c1
3.955
